Data provenance: patent EP4806891A1

- SYSTEM UNDER TEST: HEK-Blue-hTLR9 cells (Homo sapiens, UniProt Q9NR96)
- Sequence (Q9NR96 26-1032): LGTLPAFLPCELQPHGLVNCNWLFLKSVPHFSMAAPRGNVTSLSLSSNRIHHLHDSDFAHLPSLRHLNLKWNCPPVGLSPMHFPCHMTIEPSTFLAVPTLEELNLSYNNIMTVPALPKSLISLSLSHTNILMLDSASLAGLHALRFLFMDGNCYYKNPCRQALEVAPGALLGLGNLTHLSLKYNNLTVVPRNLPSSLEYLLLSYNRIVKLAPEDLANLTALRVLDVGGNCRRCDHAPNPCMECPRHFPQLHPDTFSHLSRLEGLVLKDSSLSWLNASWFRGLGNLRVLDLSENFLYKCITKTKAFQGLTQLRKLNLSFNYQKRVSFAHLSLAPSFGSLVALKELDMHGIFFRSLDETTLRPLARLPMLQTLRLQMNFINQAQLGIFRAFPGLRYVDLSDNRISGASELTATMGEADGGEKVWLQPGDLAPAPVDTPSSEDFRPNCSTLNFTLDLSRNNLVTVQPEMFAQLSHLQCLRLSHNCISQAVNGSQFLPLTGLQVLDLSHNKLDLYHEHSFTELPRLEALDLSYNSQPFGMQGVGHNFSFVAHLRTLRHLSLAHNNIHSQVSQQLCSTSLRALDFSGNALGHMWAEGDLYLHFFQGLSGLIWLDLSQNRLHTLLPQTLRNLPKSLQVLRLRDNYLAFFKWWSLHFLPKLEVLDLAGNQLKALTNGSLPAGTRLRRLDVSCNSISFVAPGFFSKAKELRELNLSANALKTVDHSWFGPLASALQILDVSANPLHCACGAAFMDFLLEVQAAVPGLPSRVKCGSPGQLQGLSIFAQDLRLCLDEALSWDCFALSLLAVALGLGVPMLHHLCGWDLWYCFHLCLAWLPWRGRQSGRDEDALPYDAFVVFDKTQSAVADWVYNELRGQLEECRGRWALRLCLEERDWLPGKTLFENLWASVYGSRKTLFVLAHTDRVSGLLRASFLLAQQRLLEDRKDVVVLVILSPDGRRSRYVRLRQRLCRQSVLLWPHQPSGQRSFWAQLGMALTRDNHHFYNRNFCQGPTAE
- ASSAY REMARKS: HEK-Blue-hTLR9 cell inhibition assay
- TEST CONTEXT: ODN2006 1 µM, 16 h, OD 620 nm, read-out: TLR9 IC50
pIC50: −log10 of the molar value.
MEASURED METRIC: pIC50

Study these solved cases before continuing.
INSERT INTO measurements (molecule, recorded_result) VALUES
  ('N#Cc1ccc(N2C[C@]3(c4nnc(C5(F)CNC5)o4)C[C@]3(C(F)(F)F)C2)c2cccnc12 [Compound 32]', '< 5.00'),
  ('CN1CCC(F)(c2nnc([C@]34CN(c5ccc(C#N)n6nccc56)C[C@@]3(C(F)(F)F)C4)o2)CC1 [Compound 90]', '< 6.00'),
  ('N#Cc1ccc(N2C[C@]3(c4nnc(C56CCC(NC(=O)[C@@H]7COCCN7)(CC5)CC6)o4)C[C@]3(C(F)(F)F)C2)c2cccnc12 [Compound 54]', '< 6.00'),
  ('CN1CCC(c2nnc([C@]34CN(c5ccc(C#N)n6ncc(F)c56)C[C@@]3(C(F)(F)F)C4)o2)CC1 [Compound 57]', '< 6.00'),
  ('N#Cc1ccc(N2C[C@]3(c4nnc(C5CCN(CC(N)=O)CC5)o4)C[C@]3(C(F)(F)F)C2)c2cccnc12 [Compound 17]', '< 5.00'),
  ('Cc1cc(N2CC3(c4nnc(C5CCN(C)CC5)o4)C[C@]3(C(F)(F)F)C2)c2cnn(C)c2n1 (stereo partly drawn) [Compound 2]', '< 5.00');

Entry under test: N#Cc1ccc(N2C[C@]3(c4nnc(CN5CCOCC5)o4)C[C@]3(C(F)(F)F)C2)c2cccnc12 [Compound 40] . Its pIC50 was < 5.00

Entry FC(F)(F)c1ccc(N2C[C@]3(c4nnc(C5CCN(CC6CC6)CC5)o4)C[C@]3(C(F)(F)F)C2)c2cccnc12 [Compound 76] , pIC50 reported as < 6.00

Form: molecule = N#Cc1ccc(N2C[C@]3(c4nnc(C5CNCC(F)C5)o4)C[C@]3(C(F)(F)F)C2)c2cccnc12 (stereo partly drawn) [Compound 45] ; pIC50 = < 5.00

Noted for CN(C)C12CCC(c3nnc([C@]45CN(c6ccc(C#N)c7ncccc67)C[C@@]4(C(F)(F)F)C5)o3)(CC1)CC2 [Compound 53] : its pIC50 reads < 6.00

Recorded result, N#Cc1ccc(N2C[C@]3(c4nnc(C5CCNCC5)o4)C[C@]3(C(F)(F)F)C2)c2c(F)cnn12 [Compound 80] , pIC50: < 6.00

Lookup result for FC(F)(F)c1ccc(N2C[C@]3(c4nnc(C5CCNCC5)o4)C[C@]3(C(F)(F)F)C2)c2cccnc12 [Compound 75] ; measured pIC50: < 6.00
